# Procedure Summary: Mouse pharmacokinetics, i.v./oral and enabling formulations
# Format: in vivo
# Conditions: mouse, plasma, po, 1 mg/kg, Oral 1 mg/kg in SF; 1 h; read-out: Plasma conc (total)

>  <Compound>
Cc1ncsc1-c1ccc(CNC(=O)[C@@H]2C[C@@H](O)CN2C(=O)[C@@H](NC(=O)COCCCOCCCOc2cc(F)c([C@@H]3c4[nH]c5ccccc5c4C[C@@H](C)N3CC(C)(C)F)c(F)c2)C(C)(C)C)cc1 [Compound 5]

>  <Measure Unit>
nM

>  <concentration at 1 h>
9.06

$$$$

====

# Procedure Summary: Mouse hepatocyte intrinsic clearance
# Assay type: in vitro ADME
# Conditions: mouse

>  <Smiles Repr>
Cc1ncsc1-c1ccc(CNC(=O)[C@@H]2C[C@@H](O)CN2C(=O)[C@@H](NC(=O)COCCCOCCCOc2cc(F)c([C@@H]3c4[nH]c5ccccc5c4C[C@@H](C)N3CC(C)(C)F)c(F)c2)C(C)(C)C)cc1

>  <muHeps (mouse hepatocytes) clearance [µL/min/1e6 cells]>
9.5

$$$$

====

# Procedure Summary: Mouse pharmacokinetics, i.v./oral and enabling formulations
# Type: in vivo
# Conditions: mouse, plasma, iv, 0.5 mg/kg, IV 0.5 mg/kg; 4 h; read-out: Plasma conc (total)

>  <Smiles Repr>
Cc1ncsc1-c1ccc(CNC(=O)[C@@H]2C[C@@H](O)CN2C(=O)[C@@H](NC(=O)COCCCOCCCOc2cc(F)c([C@@H]3c4[nH]c5ccccc5c4C[C@@H](C)N3CC(C)(C)F)c(F)c2)C(C)(C)C)cc1

>  <concentration at 4 h>
7.09 nM

$$$$

====

# Procedure Summary: Mouse pharmacokinetics, i.v./oral and enabling formulations
# Assay type: in vivo
# Conditions: mouse, plasma, iv, 0.5 mg/kg, IV 0.5 mg/kg; 2 h; read-out: Plasma conc (total)
Reported Property: concentration at 2 h (nM)

>  <Smiles Repr>
Cc1ncsc1-c1ccc(CNC(=O)[C@@H]2C[C@@H](O)CN2C(=O)[C@@H](NC(=O)COCCCOCCCOc2cc(F)c([C@@H]3c4[nH]c5ccccc5c4C[C@@H](C)N3CC(C)(C)F)c(F)c2)C(C)(C)C)cc1

>  <Reported Property>
concentration at 2 h

>  <Measurement>
16.9

$$$$

====

Quick reference: Dmax of the listed items.
# System Tested: ERα (Homo sapiens, UniProt P03372)
# Construct: endogenous in cells; host or cells: MCF7 (also MCF7 engineered to express Cas9)
# Sequence (P03372 whole entry): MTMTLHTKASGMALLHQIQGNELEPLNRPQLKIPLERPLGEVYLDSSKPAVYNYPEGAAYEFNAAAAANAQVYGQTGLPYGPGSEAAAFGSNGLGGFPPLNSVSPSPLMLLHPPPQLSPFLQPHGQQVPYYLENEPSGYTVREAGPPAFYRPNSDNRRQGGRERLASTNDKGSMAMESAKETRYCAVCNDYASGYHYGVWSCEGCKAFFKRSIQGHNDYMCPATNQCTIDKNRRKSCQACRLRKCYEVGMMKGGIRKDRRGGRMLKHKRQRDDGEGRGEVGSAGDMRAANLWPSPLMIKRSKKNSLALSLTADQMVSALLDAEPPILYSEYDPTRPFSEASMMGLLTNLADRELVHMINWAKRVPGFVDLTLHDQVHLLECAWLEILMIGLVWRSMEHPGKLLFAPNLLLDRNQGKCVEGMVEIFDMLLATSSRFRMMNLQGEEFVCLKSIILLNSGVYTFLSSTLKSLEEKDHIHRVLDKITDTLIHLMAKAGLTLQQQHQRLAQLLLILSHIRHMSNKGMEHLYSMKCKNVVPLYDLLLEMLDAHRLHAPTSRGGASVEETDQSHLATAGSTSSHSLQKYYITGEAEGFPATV
# Procedure Summary: ERα high throughput imaging degradation assay in MCF7 cells
# Assay type: cell-based
# Conditions: MCF7, read-out: ERα imaging Dmax, 0% vehicle control, 100% fulvestrant; MCF7

>  <Smiles Repr>
Cc1ncsc1-c1ccc(CNC(=O)[C@@H]2C[C@@H](O)CN2C(=O)[C@@H](NC(=O)COCCCOCCCOc2cc(F)c([C@@H]3c4[nH]c5ccccc5c4C[C@@H](C)N3CC(C)(C)F)c(F)c2)C(C)(C)C)cc1

>  <Dmax [%]>
100

$$$$
>  <Smiles Repr>
Cc1ncsc1-c1ccc(CNC(=O)[C@@H]2C[C@@H](O)CN2C(=O)[C@@H](NC(=O)COCCOCCOCCOc2cc(F)c([C@@H]3c4[nH]c5ccccc5c4C[C@@H](C)N3CC(C)(C)F)c(F)c2)C(C)(C)C)cc1

>  <Dmax [%]>
99

$$$$
>  <Smiles Repr>
Cc1ncsc1-c1ccc(CNC(=O)[C@@H]2C[C@@H](O)CN2C(=O)[C@@H](NC(=O)COCCN2CCN(CCOc3cc(F)c([C@@H]4c5[nH]c6ccccc6c5C[C@@H](C)N4CC(C)(C)F)c(F)c3)CC2)C(C)(C)C)cc1

>  <Dmax [%]>
100

$$$$

Data provenance is paper PMC11091220.
